# System: primary mouse hepatocytes
# PROTOCOL: Gene expression (Affymetrix Mouse Genome 430 2.0) in primary mouse hepatocytes, true vs false GTX, 24 h and 48 h
# EXPERIMENTAL CONDITIONS: 48 h; log2, corrected for vehicle control
QUANTITY NAME: Gene expression X62701 average
API note: the answer field is a bare number with no unit suffix.

Solved entries:
O=c1c(O)c(-c2ccc(O)c(O)c2)oc2cc(O)cc(O)c12	0.8426
c1ccc2c(c1)cc1ccc3cccc4ccc2c1c34	−1.2338
Nc1ccccc1C(=O)O	0.7542
CN(C)N=O	0.07157
Nc1ccc([N+](=O)[O-])cc1N	0.7376

Turning now to a further record.
Exercise: Data request, read-out Gene expression X62701 average, for CC(=O)Nc1ccc2c(c1)Cc1ccccc1-2
Key: −0.356

----------
# Test system: primary mouse hepatocytes
# PROTOCOL: Gene expression (Affymetrix Mouse Genome 430 2.0) in primary mouse hepatocytes, true vs false GTX, 24 h and 48 h
# EXPERIMENTAL CONDITIONS: 24 h average; log2, corrected for vehicle control
Strictly below -0.7 in Gene expression data AF000969 (Cadps2): Yes. Otherwise: No.

CN(C)N=O [DMN, Dimethylnitrosamine]	Yes
c1ccc2c(c1)cc1ccc3cccc4ccc2c1c34 [BaP, Benzo(a)pyrene]	Yes
O=c1c(O)c(-c2ccc(O)c(O)c2)oc2cc(O)cc(O)c12 [Q, Quercetin]	No
CC(=O)Nc1ccc2c(c1)Cc1ccccc1-2 [2-AAF, 2-Acetylaminofluorene]	No

Exercise: I'd appreciate it if you could check whether Nc1ccccc1C(=O)O [ANAC, o-Anthranilic acid] has Gene expression data AF000969 (Cadps2) smaller than -0.7.
Key: No

----------
# System: primary mouse hepatocytes
# PROTOCOL: Gene expression (Affymetrix Mouse Genome 430 2.0) in primary mouse hepatocytes, true vs false GTX, 24 h and 48 h
# EXPERIMENTAL CONDITIONS: 24 h average; log2, corrected for vehicle control
Please use y whenever Gene expression data BG066903 (Kif16b) is not below -0.1, and n whenever it is.

Past entries and their recorded results:
c1ccc2c(c1)cc1ccc3cccc4ccc2c1c34 [BaP, Benzo(a)pyrene]	n
CN(C)N=O [DMN, Dimethylnitrosamine]	n
CC(=O)Nc1ccc2c(c1)Cc1ccccc1-2 [2-AAF, 2-Acetylaminofluorene]	n

Exercise: Say whether O=c1c(O)c(-c2ccc(O)c(O)c2)oc2cc(O)cc(O)c12 [Q, Quercetin] shows Gene expression data BG066903 (Kif16b) of -0.1 or more.
Key: y

Exercise: API: above_or_equal(metric=Gene expression data BG066903 (Kif16b), cutoff=-0.1) for item Nc1ccccc1C(=O)O [ANAC, o-Anthranilic acid]
Key: y

Exercise: Could you tell me if the measured Gene expression data BG066903 (Kif16b) of Nc1ccc([N+](=O)[O-])cc1N [4-NP, 4-Nitro-o-phenylenediamine] reaches -0.1 or more?
Key: y

----------
# Tested on: primary mouse hepatocytes
# PROTOCOL: Gene expression (Affymetrix Mouse Genome 430 2.0) in primary mouse hepatocytes, true vs false GTX, 24 h and 48 h
# EXPERIMENTAL CONDITIONS: 24 h average; log2, corrected for vehicle control
With a cut-off of -0.3, any Gene expression data AF204959 (Cyp3a25 /// LOC622249) strictly below it is called Condition met; any Gene expression data AF204959 (Cyp3a25 /// LOC622249) meeting it or above is called Condition not met.

CC(=O)Nc1ccc2c(c1)Cc1ccccc1-2 [2-AAF, 2-Acetylaminofluorene]	Condition not met
O=c1c(O)c(-c2ccc(O)c(O)c2)oc2cc(O)cc(O)c12 [Q, Quercetin]	Condition met

Exercise: is_below(Gene expression data AF204959 (Cyp3a25 /// LOC622249), -0.3) for Nc1ccccc1C(=O)O [ANAC, o-Anthranilic acid] ?
Key: Condition not met

Exercise: Would you kindly verify if Gene expression data AF204959 (Cyp3a25 /// LOC622249) of Nc1ccc([N+](=O)[O-])cc1N [4-NP, 4-Nitro-o-phenylenediamine] is strictly less than -0.3?
Key: Condition met
